molecular target: UniProt P53350; test: PLK1 inhibition assay (radioactive-phosphate incorporation); assay type: biochemical; details: conditions for values of less than 1 nM: 350 μM ATP, 450 μM peptide, 1 nM PLK1, 240 minutes, 25° C., read-out: Ki in the radioactive incorporation assay (Ki(app))
Sequence (P53350 whole entry): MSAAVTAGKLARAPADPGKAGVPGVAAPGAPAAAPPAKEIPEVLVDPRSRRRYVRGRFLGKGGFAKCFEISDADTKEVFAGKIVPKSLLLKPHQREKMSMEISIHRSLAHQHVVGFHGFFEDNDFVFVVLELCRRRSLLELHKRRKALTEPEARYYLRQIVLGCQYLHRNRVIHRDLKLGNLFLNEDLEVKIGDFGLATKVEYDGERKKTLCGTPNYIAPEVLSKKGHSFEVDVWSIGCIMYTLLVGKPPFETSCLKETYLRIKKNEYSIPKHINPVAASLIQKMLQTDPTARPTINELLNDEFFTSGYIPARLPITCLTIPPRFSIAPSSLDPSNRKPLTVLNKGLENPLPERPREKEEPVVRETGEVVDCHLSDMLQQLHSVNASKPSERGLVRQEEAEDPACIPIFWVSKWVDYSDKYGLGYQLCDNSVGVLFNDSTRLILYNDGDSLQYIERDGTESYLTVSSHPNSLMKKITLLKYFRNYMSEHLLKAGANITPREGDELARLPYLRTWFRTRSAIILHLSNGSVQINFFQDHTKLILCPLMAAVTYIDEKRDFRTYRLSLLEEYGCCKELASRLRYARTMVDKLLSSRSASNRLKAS
readout-type: Ki

Example entries begin here.
>>> recorded_measurement("CC[C@@H]1c2nncn2-c2cnc(Nc3ccc(C(=O)NC4CC4)cc3OC)nc2N1[C@@H]1CCC(F)(F)C1")
"< 1 nM"
>>> recorded_measurement("CC[C@@H]1C(=O)N(C)c2cnc(Nc3ccc(C(=O)NC4CC4)cc3OC)nc2N1[C@@H]1CCC(F)(F)C1")
"< 1 nM"

Consider the additional molecule presented here.
// CCNC(=O)c1ccc(Nc2ncc3c(n2)N([C@@H]2CCC(F)(F)C2)[C@H](CC)C(=O)N3C)c(OC)c1 : Ki value = < 1 nM
